Each recorded value in this set is attributed to ChEMBL document CHEMBL5390262.

assay: Toxicity in Swiss CD-1 mouse assessed as body weight change at 0.3 microg/kg,ip using sesame oil as vehicle for 21 days on every other day; conditions: in vivo, 0.0003 mg/kg, 504 h, dose 0.3 µg/kg, time 21 day
EXPERIMENTAL ENDPOINT: Activity

Example entries begin here.
C=C1/C(=C\C=C(/CC)c2cccc(CCC#CCC(O)(C(F)(F)F)C(F)(F)F)c2)C[C@@H](O)C[C@@H]1O: Non-Toxic
C=C1/C(=C\C=C(/CC)c2cccc(CCCCCC(O)(C(F)(F)F)C(F)(F)F)c2)C[C@@H](O)C[C@@H]1O: Non-Toxic
C=C1/C(=C\C=C(/C)c2cccc(CCC#CCC(O)(C(F)(F)F)C(F)(F)F)c2)C[C@@H](O)C[C@@H]1O: Non-Toxic
C=C1/C(=C\C=C2/CCC[C@]3(C)[C@@H]([C@H](C)CCCC(C)(C)O)CC[C@@H]23)C[C@@H](O)C[C@@H]1O: Toxic

Okay, next one:
[ask] Fill blank: measured Activity of the molecule C=C1/C(=C\C=C(/CC)c2cccc(CCC#CCC(C)(C)O)c2)C[C@@H](O)C[C@@H]1O is ____.
[reply] Non-Toxic
